Values from paper PMC3896865

molecular target: EGR1 DB_WT (Zif268 DNA-binding domain) (human, UniProt P18146 331-430); experiment: ITC
metric: pKd
pKd is defined as minus the log10 of a concentration measured in mol/L.

Lookup: Entry ZRE duplex (15-mer) (dsDNA) DNA 1: ATAGCGTGGGCGTTT DNA 2: AAACGCCCACGCTAT has what pKd?
Found: 6.38
